A collection of compounds and their measured IC50
- System: MCF‐7 cell lines
- TEST METHOD NOTES: MTT assay, cytotoxicity on MCF-7 cells
- Assay type: cell-based, human
- EXPERIMENTAL CONDITIONS: Homo sapiens, MCF7; MTT, 72 h; read-out: IC50 (μM) for MCF‐7 cell lines, 72 h
Output spec: scalar in µM, unitless text.

The examples below pair each entry with its known result.
>>> quantitative_result("Cc1ccc2nc(-c3ccc(-c4nc5ccc(C)cc5o4)[nH]3)oc2c1")
3.53
>>> quantitative_result("COc1ccc2oc(-c3ccc(-c4nc5cc(C)ccc5o4)[nH]3)nc2c1")
3.11

For reference, reported IC50 for Clc1ccc2oc(-c3ccc(-c4nc5ccccc5o4)[nH]3)nc2c1 stands at 2.77
